Where these numbers come from: PubChem BioAssay (NCI)

// growth lookup, one value per entry
- System: BT-549 breast
- PROTOCOL_DESCRIPTION: NCI-60 one-dose screen, 48 h (100 = growth as untreated, 0 = no growth, -100 = all killed)
- CONDITION_PARAMETERS: 10 µM unless noted
This is part of a sample that, as a whole, favours compounds with a hit. Of some 83,000 tested, about 20% had one in any assay.
// return numeric value only (unit: %, not printed)

# MOLECULE, ASSAY_READOUT, MEAS_VALUE
data = [
    ("Cc1nn(-c2ccccc2)c2nc3nc4c(c(N)c3c(-c3ccc(Cl)cc3)c12)CCC4", "growth", 114),
    ("Cc1oc2c(c1C(=O)N1CC[C@@H](N)C1)C(=O)c1c(c(O)c3ccccc3c1O)C2=O", "growth", 79),
]

Value of growth reported for the molecule CCCCNNC(=O)c1ccc(Br)cc1 is 78.7

Value of growth reported for the molecule COc1ccc(C2=NOC(CC(=O)N(CCO)CCO)C2)cc1OC1CCCC1 (stereo not given) is 95.5

Value of growth reported for the molecule O=C(Nc1ccc(Cl)c(Cl)c1)OCn1ncc2ccc([N+](=O)[O-])cc21 is 78.5

----------
- Tested on: T-47D breast
- PROTOCOL_DESCRIPTION: NCI-60 one-dose screen, 48 h (100 = growth as untreated, 0 = no growth, -100 = all killed)
- CONDITION_PARAMETERS: 10 µM
The panel holds about 83,000 compounds, 20% with a hit somewhere; the sample as a whole holds those more often. The source made the active and inactive calls. Rule for the calls: active = growth percent below 10; inactive = the rest.
ASSAY_READOUT: growth

Example compounds with recorded growth:
# COMPOUND, growth
data = [
    ("Cc1cc(=O)oc2c1ccc1oc(C(=O)c3ccccc3)c(C)c12", "76.3% (inactive)"),
    ("COc1ccc(C(=O)C2=CC(=O)C(=O)C2)cc1OC", "99.7% (inactive)"),
    ("Cc1cc(Cl)c2c(Cl)ccc(Cl)c2n1", "103% (inactive)"),
    ("Cc1ccc(S(=O)(=O)N2CCc3ccc(O)c4c3C2Cc2ccc3c(c2-4)OCO3)cc1 (configuration not stated)", "46% (inactive)"),
    ("CCCN1CCN(c2ccc3nc(-c4ccc5nc(-c6ccc(C(F)(F)F)cc6)[nH]c5c4)[nH]c3c2)CC1", "48% (inactive)"),
]

The compound COc1cc(C2=NN(c3ccc(S(N)(=O)=O)cc3)C(c3ccc(Cl)cc3)C2)cc(OC)c1OC (configuration not stated) on T-47D breast: growth was 20.4% (inactive)

The compound O=C(c1ccc2ncc(-c3nc(NC4CC4)ncc3F)n2c1)N1CCOCC1 on T-47D breast: growth was 32.2% (inactive)

----------
- Test system: SF-539 CNS
- PROTOCOL_DESCRIPTION: NCI-60 one-dose screen, 48 h (100 = growth as untreated, 0 = no growth, -100 = all killed)
- CONDITION_PARAMETERS: 10 µM unless noted
This is part of a sample that, as a whole, favours compounds with a hit. Of some 83,000 tested, about 20% had one in any assay.
Condition met means recorded growth is 50% or above; Condition not met means it is below 50%.

Previously resolved entries follow.
# MOLECULE, TESTED_TARGET, CLASS_ASSIGNMENT
measured = [
    ("COc1cc(C(F)(F)F)ccc1-c1cc(-c2ccc(F)cc2)n[nH]1", "SF-539 CNS", "Condition met"),
    ("CCOC(=O)n1cc(C2=C(c3cn(C)c4ccccc34)COC2=O)c2ccccc21", "SF-539 CNS", "Condition not met"),
    ("COC(=O)c1c2c(c(C)[n+]([O-])c1C)C(=O)C(NCc1ccc(O)cc1)=CC2=O", "SF-539 CNS", "Condition not met"),
    ("Fc1c[c-]c(-c2ccccn2)c(F)c1.Fc1c[c-]c(-c2ccccn2)c(F)c1.[Cl][Pt+].[Cl][Pt+].c1ccc([PH+](C[PH+](c2ccccc2)c2ccccc2)c2ccccc2)cc1", "SF-539 CNS", "Condition not met"),
    ("CCOC(=O)c1c(-c2cc(OC)c(OC)c(OC)c2)csc1N", "SF-539 CNS", "Condition met"),
    ("O=C1CCC(N2Cc3c(C#CCCCNC(=O)c4cc5c(o4)C(=O)c4ccccc4C5=O)cccc3C2=O)C(=O)N1 (stereo not given)", "SF-539 CNS", "Condition not met"),
]

Switching to the query record.
Ask: Hello, I need to know if O=C1/C(=C/c2ccc(Cl)cc2)CN(Cc2cn(CCCNc3ccnc4cc(Cl)ccc34)nn2)C/C1=C\c1ccc(Cl)cc1 has measured growth not below 50%. Thanks!
Reply: Condition not met
